test method notes: molar heat capacity at constant pressure
assay setup: 320.15 K; 101.33 kPa; Liquid; DSC
quantity: molar heat capacity at constant pressure (J/K/mol)

{"columns": ["structure smiles", "quantity", "units label", "assay value"],
 "data": [
  ["CCCCC[n+]1ccn(CCCC)c1.O=S(=O)([N-]S(=O)(=O)C(F)(F)F)C(F)(F)F", "molar heat capacity at constant pressure", "J/K/mol", 703.22],
  ["CCCC[n+]1ccn(C2CCCC2)c1.O=S(=O)([N-]S(=O)(=O)C(F)(F)F)C(F)(F)F", "molar heat capacity at constant pressure", "J/K/mol", 668.19],
  ["CCCCn1cc[n+](CCC(C)C)c1.O=S(=O)([N-]S(=O)(=O)C(F)(F)F)C(F)(F)F", "molar heat capacity at constant pressure", "J/K/mol", 702.08],
  ["CCCCn1cc[n+](C(CC)CC)c1.O=S(=O)([N-]S(=O)(=O)C(F)(F)F)C(F)(F)F", "molar heat capacity at constant pressure", "J/K/mol", 713.78]
]}
